Test: reversal of MRP1-mediated doxorubicin resistance, pilot screen, H69AR cells, doxorubicin co-treatment (AID 601)
Conditions: H69AR cells + 2 uM doxorubicin, CellTiter-Glo, 72 h; at 10 µM; hits give high values
Active and inactive are the calls of the source.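 Rule for the calls: active = viability loss from added drug above about 55%, and viability with drug at most 40%, in both replicates (limit read from the data, passing the limit was not always enough); inconclusive = both conditions met in only one replicate; inactive = neither replicate meets both conditions.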
Could you please report measured differential viability (reversal) for the items listed next?

Examples with their reported differential viability (reversal) follow.
compound: O=C(O)CSC1CC(=O)N(c2ccc(Cl)c(Cl)c2)C1=O (stereo not given)
differential viability (reversal): 7.75% (inactive)
--
compound: Cc1cc(C)n(C(=O)CCCCCC(=O)n2nc(C)cc2C)n1
differential viability (reversal): 10.8% (inactive)
--
compound: COc1cc(C2C(C#N)=C(C)NC3=C2C(=O)CC(C)(C)C3)ccc1O (stereo not given)
differential viability (reversal): 3.54% (inactive)
--
compound: Nc1nc(SCc2ccc(Cl)cc2Cl)n[nH]1
differential viability (reversal): 4.17% (inactive)
--
compound: CCOCCCNC(=O)C1CCCN(S(=O)(=O)CC)C1 (stereo not given)
differential viability (reversal): -3.11% (inactive)

List reported differential viability (reversal) for each of these compounds:
1. COc1ccc(Br)cc1C1N2CC3(C)CN1CC(C)(C2)C3=O (stereo not given)
2. Cc1cc(=O)[nH]c(SCc2nc3ncccn3c2Br)n1
3. CC(C)(C)NC(=O)CN(C(=O)C1CSC(=O)C1)c1ccc2c(c1)OCCO2 (stereo not given)
4. O=C(Oc1cc2oc(=O)c3c(c2cc1Cl)CCCC3)c1ccco1
5. O=C(OC1CCc2ccccc2C1=O)c1ccccc1O (stereo not given)
6. COc1ccccc1NC(=O)C1=C(C)NC(SCC(=O)c2ccc(C)cc2)=C(C#N)C1c1ccco1 (stereo not given)

1. -33% (inactive)
2. -2.9% (inactive)
3. -1.13% (inactive)
4. -13.1% (inactive)
5. -13.2% (inactive)
6. 0.78% (inactive)

List reported differential viability (reversal) for each of these compounds:
1. Cc1nnc(SCCn2c(Br)nc3c2c(=O)n(C)c(=O)n3C)s1
2. Cc1cccc(N2CCN(C(=O)c3ccc(NS(=O)(=O)c4c(C)noc4C)cc3)CC2)c1C

["0.705% (inactive)", "13.6% (inactive)"]

List reported differential viability (reversal) for each of these compounds:
1. CCN(CC(=O)Nc1ccc2c(c1)OCCO2)Cc1cc(=O)oc2cc(C)c(C)cc12
2. Cc1ccc(N2C(N)=NC(N)=NC23CCCC3)c(C)c1
3. O=C(CNCCC1=CCCCC1)Nc1ccccc1N1CCCCC1

["5.8% (inactive)", "20.6% (inactive)", "-5.31% (inactive)"]

List reported differential viability (reversal) for each of these compounds:
1. O=C(NCCCN1CCOCC1)c1cc(-c2ccc(Cl)cc2)on1
2. COc1ccc(OC)c(CNC(=O)CCN2C(=O)COc3ccccc32)c1
3. O=C(CN1C(=O)CC(c2ccco2)Sc2ccccc21)Nc1ccc2c(c1)OCCO2 (stereo not given)
4. CCCC(=O)Nc1ccc(NC(=O)c2cccs2)cn1
5. CCCCCc1nnc(NC(=O)Cc2cccs2)s1
6. C=C(C)COc1ccc(-c2n[nH]c(C)c2-c2ccccc2)c(O)c1
7. CCCc1cc(-n2ccnc2)n2c(nc3ccccc32)c1C#N
8. O=C1c2ccccc2C(=O)N1CCC(=O)N1CCc2ccccc21

1: 15.9% (inactive); 2: 3.34% (inactive); 3: 1.83% (inactive); 4: 5.45% (inactive); 5: 10.7% (inactive); 6: 7.88% (inactive); 7: -10.1% (inactive); 8: -5.43% (inactive)

I have this compound here, CCCCC(=O)Nc1c(O)c2ccccc2[nH]c1=O , and I need its recorded differential viability (reversal).
-2.29% (inactive)

The measurements presented in this section are drawn from PubChem BioAssay.
